assayedSystem: hMC4-R
Construct: expressed in transfected cells; host or cells: HEK-293
Format: binding, human
measurementContext: read-out: Ki (nM) (AgRP) MC4-R
Flag rule - Ki less than 5 nM flags yes; the remaining entries get no.

Here's what some known entries look like.
INSERT INTO measurements (compound, assignedlabel) VALUES
  ('Cc1cc(Cl)ccc1C[C@@H](N)C(=O)N1C[C@@H](C)N(C(=O)Cc2ccc3ccccc3c2)C[C@@H]1CCCNC(=N)N [Example 11]', 'no'),
  ('Cc1ccc(CCN2C[C@H](CCCNC(=N)N)N(C(=O)[C@H](N)Cc3ccc4ccccc4c3)C[C@H]2C)cc1 [Example 5]', 'no'),
  ('CC(=O)N[C@H](Cc1ccc(C)cc1C)C(=O)N1C[C@@H](C)N(CCc2ccc3ccccc3c2)C[C@@H]1CCCNC(=N)N [Example 26]', 'yes'),
  ('Cc1ccc(C[C@@H](N)C(=O)N2C[C@@H](C)N(CCc3ccc4ccccc4c3)C[C@@H]2CCCNC(=N)N)c(C)c1 [Example 28]', 'yes');

We next turn to a different compound, shown below.
Exercise: Hi there! Is Ki for C[C@@H]1CN(C(=O)[C@H](N)Cc2ccc3ccccc3c2)[C@@H](CCCNC(=N)N)CN1C(=O)CCCc1c[nH]c2ccccc12 [Example 7] below 5 nM, do you know?
Solution: no
